Taken from patent US8551999B2.

Recorded melting point for the following compounds

Sample answers from the record:
# compound, melting point
rows = [
    ("Br.CCN(C(=O)c1ccc(C(F)(F)F)cc1)c1ccc(Oc2ccc3cc(C(=O)N4CCN(Cc5ccc(OCC(F)(F)F)cc5)CC4)n(C)c3c2)nc1 [Example 26]", "189.8 to 192.8 °C"),
    ("Br.Cn1c(C(=O)N2CCN(Cc3ccc(OCC(F)F)cc3)CC2)cc2cc(Oc3ccc(NC(=O)c4ccc(C(F)(F)F)cc4)cn3)ccc21 [Example 462]", "229.1 to 230.8 °C"),
    ("Cl.Cn1c(C(=O)N2CCN(Cc3ccc(OC(F)F)cc3)CC2)cc2ccc(Oc3ncc(NC(=O)c4ccc(C(F)(F)F)cc4)cn3)cc21", "247.7 to 249.8 °C"),
    ("Br.Cn1c(C(=O)N2CCN(Cc3ccc4c(c3)OCO4)CC2)cc2cc(Oc3ccc(NC(=O)c4ccc(C(F)(F)F)cc4F)cn3)ccc21 [Example 316]", "254 to 257 °C (dec.)"),
    ("Cc1ccc(S(=O)(=O)Nc2ccc(Oc3ccc4cc(C(=O)N5CCN(Cc6ccc(OCC(F)(F)F)cc6)CC5)n(C)c4c3)nc2)cc1 [Example 71]", "198.3 to 200.3 °C"),
]

// melting point lookup, key: COc1ccc(CN2CCN(C(=O)c3cc4cc(Oc5ncc(NC(=O)c6ccc(C(F)(F)F)cc6)cn5)ccc4n3C)CC2)cc1 [Example 380]
179 to 180 °C
